# tested.on: β2-receptors of the cardiovascular system (Canis lupus familiaris)
# Construct: from tissue; host or cells: femoral artery vascular bed of anaesthetised mongrel dogs, in vivo
# Sequence (P54833 whole entry): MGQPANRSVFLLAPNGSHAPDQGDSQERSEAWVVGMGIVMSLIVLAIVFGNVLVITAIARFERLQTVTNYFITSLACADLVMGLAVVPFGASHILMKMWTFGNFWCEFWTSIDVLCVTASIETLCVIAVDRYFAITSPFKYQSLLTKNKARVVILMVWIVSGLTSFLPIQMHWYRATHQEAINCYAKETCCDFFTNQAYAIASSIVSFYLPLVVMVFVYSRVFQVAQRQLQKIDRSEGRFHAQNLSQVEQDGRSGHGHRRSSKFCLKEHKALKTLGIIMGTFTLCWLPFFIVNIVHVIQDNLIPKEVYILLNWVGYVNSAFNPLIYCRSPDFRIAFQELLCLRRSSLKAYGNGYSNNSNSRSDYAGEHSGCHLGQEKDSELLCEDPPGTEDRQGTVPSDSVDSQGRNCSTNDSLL
# experimental.protocol: Inhibition of isoproterenol-induced alteration of peripheral (femoral artery) perfusion in anaesthetised dogs (β2-receptor inhibition)
# Assay type: in vivo, mongrel dogs
# condition.details: relative ED 50; dogs
Bucketed by reported Relative β2-receptor inhibition (reference substance = 100), buckets being low end = under 10, middle = from 10 up to 20, high end = 20 and over

[
  {
    "compound": "CCNC(=O)Nc1ccc(OCC(O)CNC(C)CC(O)c2cnc(C)nc2C)cc1 (stereo not shown)",
    "assigned.category": "high end"
  },
  {
    "compound": "Cc1ccc(C(O)CC(C)NCC(O)COc2ccc(OCCO)cc2)cn1 (stereo not shown)",
    "assigned.category": "high end"
  },
  {
    "compound": "CC(CC(O)c1cccnc1)NCC(O)COc1ccc(NC(=O)NC2CCCCC2)cc1 (stereo not shown)",
    "assigned.category": "low end"
  },
  {
    "compound": "COCCCCOc1ccc(OCC(O)CNC(C)CC(O)c2cnc(C)nc2C)cc1 (stereo not shown)",
    "assigned.category": "high end"
  },
  {
    "compound": "Cc1ccc(C(O)CC(C)NCC(O)COc2ccc(NC(=O)NC3CCCCC3)cc2)cn1 (stereo not shown)",
    "assigned.category": "low end"
  },
  {
    "compound": "CCOCc1ccc(OCC(O)CNC(C)CC(O)c2cnc(C)nc2C)cc1 (stereo not shown)",
    "assigned.category": "middle"
  },
  {
    "compound": "Cc1ncc(C(O)CC(C)NCC(O)COc2ccc(NC(=O)NC3CCCCC3)cc2)c(C)n1 (stereo not shown)",
    "assigned.category": "low end"
  },
  {
    "compound": "CCCOCCOc1ccc(OCC(O)CNC(C)CC(O)c2ccc(C)nc2)cc1 (stereo not shown)",
    "assigned.category": "middle"
  }
]

----------
# tested.on: β1-receptors of the heart (Canis lupus familiaris)
# Construct: from tissue; host or cells: heart (left ventricle) of anaesthetised mongrel dogs, in vivo
# Sequence (P79148 whole entry): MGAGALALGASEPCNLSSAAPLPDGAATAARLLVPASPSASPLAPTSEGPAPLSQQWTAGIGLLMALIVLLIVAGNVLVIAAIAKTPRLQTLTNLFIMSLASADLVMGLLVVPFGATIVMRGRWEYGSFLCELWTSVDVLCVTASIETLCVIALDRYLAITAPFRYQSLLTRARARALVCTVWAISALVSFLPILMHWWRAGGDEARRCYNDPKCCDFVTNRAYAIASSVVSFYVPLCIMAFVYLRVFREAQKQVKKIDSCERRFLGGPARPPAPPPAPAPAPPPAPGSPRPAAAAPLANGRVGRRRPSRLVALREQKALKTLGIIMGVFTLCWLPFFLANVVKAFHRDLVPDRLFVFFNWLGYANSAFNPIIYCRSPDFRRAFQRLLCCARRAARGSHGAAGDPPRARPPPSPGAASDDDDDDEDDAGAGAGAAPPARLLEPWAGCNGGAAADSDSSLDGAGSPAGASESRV
# experimental.protocol: Inhibition of isoproterenol-induced increase in rate of pressure rise (Dp/dt max.) in left ventricle of anaesthetised dogs (β1-receptor inhibition)
# Assay type: in vivo, mongrel dogs
# condition.details: dogs; cardioselectivity, higher = better
readout: Quotient: ED 50 of β2-receptor inhibition / ED 50 of β1-receptor inhibition

[
  {
    "compound": "CCCOCCOc1ccc(OCC(O)CNC(C)CC(O)c2ccc(C)nc2)cc1 (stereo not shown)",
    "result.value": 146
  },
  {
    "compound": "Cc1ccc(C(O)CC(C)NCC(O)COc2ccc(OCCO)cc2)cn1 (stereo not shown)",
    "result.value": 112
  },
  {
    "compound": "Cc1ncc(C(O)CC(C)NCC(O)COc2ccc(NC(=O)NC(C)C)cc2)c(C)n1 (stereo not shown)",
    "result.value": 124
  },
  {
    "compound": "CCOCCOc1ccc(OCC(O)CNC(C)CC(O)c2cccnc2)cc1 (stereo not shown)",
    "result.value": 296
  },
  {
    "compound": "CCOCc1ccc(OCC(O)CNC(C)CC(O)c2cnc(C)nc2C)cc1 (stereo not shown)",
    "result.value": 144
  },
  {
    "compound": "Cc1ncc(C(O)CC(C)NCC(O)COc2ccc(NC(=O)NC3CCCCC3)cc2)c(C)n1 (stereo not shown)",
    "result.value": 128
  },
  {
    "compound": "Cc1ccc(C(O)CC(C)NCC(O)COc2ccc(NC(=O)NC3CCCCC3)cc2)cn1 (stereo not shown)",
    "result.value": 245
  },
  {
    "compound": "CC(CC(O)c1cccnc1)NCC(O)COc1ccc(NC(=O)NC2CCCCC2)cc1 (stereo not shown)",
    "result.value": 409
  },
  {
    "compound": "CCNC(=O)Nc1ccc(OCC(O)CNC(C)CC(O)c2cnc(C)nc2C)cc1 (stereo not shown)",
    "result.value": 137
  },
  {
    "compound": "COCCCCOc1ccc(OCC(O)CNC(C)CC(O)c2cnc(C)nc2C)cc1 (stereo not shown)",
    "result.value": 176
  }
]
